Reported Ratio by item:
assay: Relative potency is the IC5O in presence of bivalent ligand divided by IC50 in presence of monovalent ligand relative to morphine

MOL: O=C(CCC(=O)NCC(=O)NCC(=O)NCC(=O)N[C@@H]1CC[C@@]2(O)[C@H]3Cc4ccc(O)c5c4[C@@]2(CCN3CC2CC2)[C@H]1O5)NCC(=O)NCC(=O)NCC(=O)N[C@@H]1CC[C@@]2(O)[C@H]3Cc4ccc(O)c5c4[C@@]2(CCN3CC2CC2)[C@H]1O5
Ratio: 11.4

MOL: O=C(CCC(=O)N[C@@H]1CC[C@@]2(O)[C@H]3Cc4ccc(O)c5c4[C@@]2(CCN3CC2CC2)[C@H]1O5)N[C@@H]1CC[C@@]2(O)[C@H]3Cc4ccc(O)c5c4[C@@]2(CCN3CC2CC2)[C@H]1O5
Ratio: 5.1

MOL: O=C(CCC(=O)NCC(=O)N[C@@H]1CC[C@@]2(O)[C@H]3Cc4ccc(O)c5c4[C@@]2(CCN3CC2CC2)[C@H]1O5)NCC(=O)N[C@@H]1CC[C@@]2(O)[C@H]3Cc4ccc(O)c5c4[C@@]2(CCN3CC2CC2)[C@H]1O5
Ratio: 10.6

MOL: O=C(CCC(=O)NCC(=O)NCC(=O)N[C@@H]1CC[C@@]2(O)[C@H]3Cc4ccc(O)c5c4[C@@]2(CCN3CC2CC2)[C@H]1O5)NCC(=O)NCC(=O)N[C@@H]1CC[C@@]2(O)[C@H]3Cc4ccc(O)c5c4[C@@]2(CCN3CC2CC2)[C@H]1O5
Ratio: 33.5
